tested on: MDA-MB-435 human tumor xenografts; assay: Human tumor xenograft antitumor bioassay; type: in vivo, athymic nude mice; conditions: Day 28, I.P., MDA-MB-435 xenograft in athymic nude mice
Everything with Average tumor volume lower than 300 mm^3 is false; everything else, including exactly 300 mm^3, is true.

The examples below pair each entry with its known result.
C#CCN(CC)CCn1c(=O)c2cc(OC)c(OC)cc2c2cnc3cc4c(cc3c21)OCO4 :: false
CCN(CCn1c(=O)c2cc(OC)c(OC)cc2c2cnc3cc4c(cc3c21)OCO4)CC(F)(F)F :: true
COc1cc2c(=O)n(CCN(CC#N)C(C)C)c3c4cc5c(cc4ncc3c2cc1OC)OCO5 :: false
COc1cc2c(=O)n(CCN(C)CC(N)=O)c3c4cc5c(cc4ncc3c2cc1OC)OCO5 :: true
C#CCN(C)CCn1c(=O)c2cc(OC)c(OC)cc2c2cnc3cc4c(cc3c21)OCO4 :: false

Prompt: Determine whether measured Average tumor volume meets or exceeds 300 mm^3 for C#CCN(CCn1c(=O)c2cc(OC)c(OC)cc2c2cnc3cc4c(cc3c21)OCO4)C(C)C
Completion: false

Prompt: Determine whether measured Average tumor volume meets or exceeds 300 mm^3 for CCN(CC#N)CCn1c(=O)c2cc(OC)c(OC)cc2c2cnc3cc4c(cc3c21)OCO4
Completion: false

Prompt: Determine whether measured Average tumor volume meets or exceeds 300 mm^3 for COc1cc2c(=O)n(CCN(C)CC#N)c3c4cc5c(cc4ncc3c2cc1OC)OCO5
Completion: true

Prompt: Determine whether measured Average tumor volume meets or exceeds 300 mm^3 for COc1cc2c(=O)n(CCN(C)C)c3c4cc5c(cc4ncc3c2cc1OC)OCO5
Completion: false
